- target-entity: human ether-à-go-go-related gene (hERG) potassium channel (human, UniProt Q12809);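 further: peak tail current of the secondary pulse compared with the same well before compound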
- Sequence (Q12809 whole entry, looked up): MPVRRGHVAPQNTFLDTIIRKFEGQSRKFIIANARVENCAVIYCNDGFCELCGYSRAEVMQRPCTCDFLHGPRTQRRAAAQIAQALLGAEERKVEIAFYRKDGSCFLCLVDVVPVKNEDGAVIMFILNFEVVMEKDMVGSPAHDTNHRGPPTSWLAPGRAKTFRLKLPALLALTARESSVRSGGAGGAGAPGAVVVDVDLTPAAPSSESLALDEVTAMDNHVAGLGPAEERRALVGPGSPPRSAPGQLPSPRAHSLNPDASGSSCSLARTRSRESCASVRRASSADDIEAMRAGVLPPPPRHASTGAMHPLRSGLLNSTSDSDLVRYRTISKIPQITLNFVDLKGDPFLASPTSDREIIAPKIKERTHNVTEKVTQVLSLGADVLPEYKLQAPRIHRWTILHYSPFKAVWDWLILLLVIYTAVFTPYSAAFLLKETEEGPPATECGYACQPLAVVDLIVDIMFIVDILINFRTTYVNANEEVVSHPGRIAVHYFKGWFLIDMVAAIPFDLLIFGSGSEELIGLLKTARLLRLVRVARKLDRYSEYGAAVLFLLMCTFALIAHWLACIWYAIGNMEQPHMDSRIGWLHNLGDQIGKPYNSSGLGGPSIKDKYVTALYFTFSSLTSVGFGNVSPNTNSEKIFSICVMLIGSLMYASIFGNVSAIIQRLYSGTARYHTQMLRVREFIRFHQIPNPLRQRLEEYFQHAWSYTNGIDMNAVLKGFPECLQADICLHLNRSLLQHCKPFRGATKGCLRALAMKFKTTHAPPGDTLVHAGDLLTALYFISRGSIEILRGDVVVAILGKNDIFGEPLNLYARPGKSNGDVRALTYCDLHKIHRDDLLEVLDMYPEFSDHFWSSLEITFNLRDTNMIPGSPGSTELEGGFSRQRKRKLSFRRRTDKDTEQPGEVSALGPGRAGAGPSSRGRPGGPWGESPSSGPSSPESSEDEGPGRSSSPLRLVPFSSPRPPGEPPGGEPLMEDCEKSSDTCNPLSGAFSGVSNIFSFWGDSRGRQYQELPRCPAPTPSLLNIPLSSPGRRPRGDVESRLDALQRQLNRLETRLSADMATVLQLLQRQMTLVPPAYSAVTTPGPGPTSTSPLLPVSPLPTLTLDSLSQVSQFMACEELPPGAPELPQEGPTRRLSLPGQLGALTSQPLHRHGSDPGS
- experiment-description: primary screen, population patch clamp on CHO cells stably expressing hERG; higher = less effect of the substance
About 14,000 (4.5%) of roughly 310,000 compounds showed an effect of 50% or more. The effect is printed as a negative number. What follows is part of a selection rich in strong results, with near analogues and random picks from the rest.
readout: hERG current change (%, negative = inhibition) at 10uM (%)
All answers are understood in %, so give the number only.

Worked examples follow.
>>> df
                                   compound  value_reported
0  COc1ccc(-n2nc(C(=O)NCC(=O)NCc3ccc(F)cc3)c3ccccc3c2=O)cc1           -12.1
1  CSc1ncccc1C(=O)Nc1ccc(S(=O)(=O)NC2=NCCCCC2)cc1            7.85
2        COc1ccc(CNc2ccc(Cl)cc2)cc1Cn1ccnc1           -20.3
3  O=C(CSc1ccc2nnc(-c3ccccn3)n2n1)NCc1ccco1           -63.1

Q. For the compound CC(C)c1ccc(CNC(=O)C(=O)NCC2CCCO2)cc1 (stereo not drawn) , what hERG current change (%, negative = inhibition) at 10uM is on record?
A. 7.73

Q. For `Oc1ccc(/C=N/N=C(c2ccccc2)c2ccccc2)c(O)c1O` , what is its reported hERG current change (%, negative = inhibition) at 10uM?
A. 8.49

Q. I am curious: what hERG current change (%, negative = inhibition) at 10uM value has been reported for `COc1ccc(-n2nc(C(=O)NCC(=O)NCCCN3CCCCCC3)c3ccccc3c2=O)cc1Cl` ?
A. -56

Q. Endpoint output: hERG current change (%, negative = inhibition) at 10uM of COc1cc(C(=O)N(Cc2ccc(C)o2)C2CCS(=O)(=O)C2)cc(OC)c1OC (stereo not drawn) . Value?
A. 14.4
